target: STAT6 (Homo sapiens); construct: These cells express endogenous STAT6; host or cells: HeLa LgBiT clone 4.14; test: Stat6 Degrader Assay (HiBiT based, HeLa LgBiT clone 4.14); format: cell-based; conditions: HeLa LgBiT clone 4.14 HiBiT-STAT6, 4-24 h incubation; values given for compounds with >80% Emax; geometric mean; read-out: STAT6 degradation DC50
endpoint-label: DC50 (nM)

Example results:
{"columns": ["compound", "DC50, nM"],
 "data": [
  ["CNc1cc(=O)n(-c2ccnc3c2cc([C@H](C)N2CC=C(c4c(C)cc(C(=O)N5CCC(CN6CCN(c7ccc8c(c7)C7(CC7)C(=O)N8[C@H]7CCC(=O)NC7=O)CC6)CC5)cc4F)CC2)n3C)cc1F (single isomer, unassigned)", 5.7],
  ["Cc1cc(C(=O)N2CCC(CN3CCN(Cc4ccc5c(c4)n(C)c(=O)n5C4CCC(=O)NC4=O)CC3)CC2)cc(F)c1C1=CCN([C@@H](C)c2cc3c(-n4cc(F)c5c(c4=O)CCN5)ccnc3n2C)CC1 (stereo partly drawn)", 3.1]
]}

I: CNc1ccn(-c2ccnc3c2cc(CN2CC=C(c4c(C)cc(C(=O)N5CCC(CN6CCN(Cc7ccc8c(c7)n(C)c(=O)n8[C@@H]7CCC(=O)NC7=O)CC6)CC5)cc4F)CC2)n3C)c(=O)c1 (single isomer, unassigned)
II: CNc1ccn(-c2ccnc3c2cc([C@H](C)N2CC=C(c4c(C)cc(C(=O)N(C)C5CCC(N6CCN(Cc7ccc8c(c7)n(C)c(=O)n8C7CCC(=O)NC7=O)CC6)CC5)cc4F)CC2)n3C)c(=O)c1 (stereo partly drawn)
III: CNc1ccn(-c2ccnc3c2cc([C@H](C)N2CC=C(c4c(C)cc(C(=O)N5CCC(CN6CCN(Cc7cc8c(cc7F)n(C7CCC(=O)NC7=O)c(=O)n8C)CC6)CC5)cc4F)CC2)n3C)c(=O)c1 (stereo partly drawn)
Exercise: Please rank these compounds by DC50 in descending order. List the labels according to the requested ordering.
Key: I, II, III
(I: 3.3 nM, II: 1.4 nM, III: 0.6 nM)

I: CNc1ccn(-c2ccnc3c2cc(CN2CC=C(c4c(F)cc(C(=O)N5CCC(CN6CCN(Cc7ccc8c(c7)n(C)c(=O)n8C7CCC(=O)NC7=O)C[C@@H]6C)CC5)cc4F)CC2)n3C)c(=O)c1 (stereo partly drawn)
II: CNc1cc(=O)n(-c2ccnc3c2cc([C@H](C)N2CC=C(c4c(C)cc(C(=O)N5CCC(CN6CCN(c7ccc8c(c7)n(C7CC7)c(=O)n8C7CCC(=O)NC7=O)CC6)CC5)cc4F)CC2)n3C)cc1F (stereo partly drawn)
Exercise: I or II : whose DC50 is greater? Please indicate the selected item by its label.
Key: II
(II: 4.3 nM, I: 0.9 nM)

P: CNc1ccn(-c2ccnc3c2cc([C@H](C)N2CC=C(c4c(C)cc(C(=O)N5CCC(CN6CCN(Cc7ccc8c(c7)C7(CCCC7)C(=O)N8C7CCC(=O)NC7=O)CC6)CC5)cc4F)CC2)n3C)c(=O)c1 (stereo partly drawn)
Q: CNc1cc(=O)n(-c2ccnc3c2cc([C@H](C)N2CC=C(c4c(C)cc(C(=O)N5CCC(CN6CCN(c7ccc8c(c7)C7(CC7)C(=O)N8[C@@H]7CCC(=O)NC7=O)C[C@@H]6C)CC5)cc4F)CC2)n3C)cc1F (single isomer, unassigned)
Exercise: P or Q : whose DC50 is greater? Please indicate the selected item by its label.
Key: Q
(Q: 7.3 nM, P: 2.5 nM)

----------
Emax reference
target: STAT6 (Homo sapiens, UniProt P42226); construct: These cells express endogenous STAT6; host or cells: HeLa LgBiT clone 4.14; experiment: Stat6 Degrader Assay (HiBiT based, HeLa LgBiT clone 4.14); assay type: cell-based; settings: HeLa LgBiT clone 4.14 HiBiT-STAT6, 4-24 h incubation; read-out: STAT6 degradation Emax

{"columns": ["molecule", "endpoint-label", "reported-value"],
 "data": [
  ["CNc1cc(=O)n(-c2ccnc3c2cc(CN2CCC(c4c(F)cc(C(=O)N5CCC(CN6CCN(c7ccc8c(c7)C7(CC7)C(=O)N8C7CCC(=O)NC7=O)CC6)CC5)cc4F)CC2)n3C)cc1F (centres unmarked) [Example 3u301]", "Emax", "20 to 30%"],
  ["C[C@H](c1cc2c(-n3ccc4[nH]ncc4c3=O)ccnc2n1C)N1CCC(c2ccc(C(=O)N3CCC(CN4CCN(Cc5ccc6c(c5)oc(=O)n6C5CCC(=O)NC5=O)CC4)CC3)cc2)CC1 (some centres unmarked) [Example 3u265]", "Emax", "< 20%"],
  ["CNc1cc(=O)n(-c2ccnc3c2cc([C@H](C)N2CC=C(c4c(C)cc(C(=O)N5CCC(CN6CCN(Cc7ccc8c(c7)n(C7CC7)c(=O)n8C7CCC(=O)NC7=O)C[C@@H]6C)CC5)cc4F)CC2)n3C)cc1OC (some centres unmarked) [Example 3u134]", "Emax", "20 to 30%"],
  ["CNc1ccn(-c2ccnc3c2cc(CN2CCC(c4c(F)cc(C(=O)N5CCC(CN6CCN(c7cc8c(cc7F)n(C7CCC(=O)NC7=O)c(=O)n8C)CC6)CC5)cc4F)CC2)n3C)c(=O)c1F (centres unmarked) [Example 3u274]", "Emax", "< 20%"]
]}

# input for lookup
Exercise: Given the molecule CNc1nc(=O)n(-c2ccnc3c2cc(CN2CCC(c4c(F)cc(C(=O)N5CCC(CN6CCN(c7cc8c(cc7F)n(C7CCC(=O)NC7=O)c(=O)n8C)CC6)CC5)cc4F)CC2)n3C)cc1F (centres unmarked) [Example 3u261] , what is its reported Emax?
Key: < 20%

----------
Molecular target: STAT6 (Homo sapiens, UniProt P42226)
Construct: These cells express endogenous STAT6; host or cells: HeLa LgBiT clone 4.14
Sequence (P42226 1-847): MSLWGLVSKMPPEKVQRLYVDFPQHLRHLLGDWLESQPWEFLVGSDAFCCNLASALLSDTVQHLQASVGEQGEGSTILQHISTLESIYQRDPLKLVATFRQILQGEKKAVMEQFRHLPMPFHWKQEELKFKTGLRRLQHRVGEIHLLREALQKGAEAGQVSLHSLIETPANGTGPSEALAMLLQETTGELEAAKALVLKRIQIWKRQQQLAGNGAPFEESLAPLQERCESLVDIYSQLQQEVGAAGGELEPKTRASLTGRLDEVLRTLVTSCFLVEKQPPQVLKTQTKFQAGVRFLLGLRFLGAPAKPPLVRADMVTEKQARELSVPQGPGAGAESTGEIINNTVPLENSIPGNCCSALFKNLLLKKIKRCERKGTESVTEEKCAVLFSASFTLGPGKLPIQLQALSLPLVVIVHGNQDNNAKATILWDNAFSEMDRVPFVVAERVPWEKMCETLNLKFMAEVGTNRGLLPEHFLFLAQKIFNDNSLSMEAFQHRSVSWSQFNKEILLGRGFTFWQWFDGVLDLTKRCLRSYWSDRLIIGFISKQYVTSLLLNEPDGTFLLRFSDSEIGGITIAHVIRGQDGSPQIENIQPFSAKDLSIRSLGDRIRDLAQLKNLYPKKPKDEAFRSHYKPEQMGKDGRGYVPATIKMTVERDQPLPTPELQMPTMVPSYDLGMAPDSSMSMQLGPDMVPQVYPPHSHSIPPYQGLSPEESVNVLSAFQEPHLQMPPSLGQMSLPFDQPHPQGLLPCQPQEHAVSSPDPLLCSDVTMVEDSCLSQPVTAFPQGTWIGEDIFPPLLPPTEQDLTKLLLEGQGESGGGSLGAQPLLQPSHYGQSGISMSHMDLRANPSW
Experiment: Stat6 Degrader Assay (HiBiT based, HeLa LgBiT clone 4.14)
Assay type: cell-based
Details: HeLa LgBiT clone 4.14 HiBiT-STAT6, 4-24 h incubation; values given for compounds with >80% Emax; geometric mean; read-out: STAT6 degradation DC50
endpoint-label: DC50 (nM)

I: CNc1ccn(-c2ccnc3c2cc(CN2CC=C(c4c(F)cc(C(=O)N5CCC(CN6CCN(Cc7ccc8c(c7)n(C)c(=O)n8[C@H]7CCC(=O)NC7=O)C[C@@H]6C)CC5)cc4F)CC2)n3C)c(=O)c1 (single isomer, unassigned)
II: CNc1ccn(-c2ccnc3c2cc([C@H](C)N2CC=C(c4c(C)cc(C(=O)N5CCC(CN6CCN(c7cc8c(cc7F)n(C7CCC(=O)NC7=O)c(=O)n8C)CC6)CC5)cc4F)CC2)n3C)c(=O)n1 (some centres unmarked)
Exercise: I or II : whose DC50 is greater? Please indicate the selected item by its label.
Key: I

----------
molecular target: STAT6 (Homo sapiens, UniProt P42226); construct: These cells express endogenous STAT6; host or cells: HeLa LgBiT clone 4.14; test: Stat6 Degrader Assay (HiBiT based, HeLa LgBiT clone 4.14); format: cell-based; conditions: HeLa LgBiT clone 4.14 HiBiT-STAT6, 4-24 h incubation; values given for compounds with >80% Emax; geometric mean; read-out: STAT6 degradation DC50
endpoint-label: DC50 (nM)

{"columns": ["molecule", "study-target", "reported-value"],
 "data": [
  ["CNc1cc(=O)n(-c2ccnc3c2cc(CN2CCC(c4c(F)cc(C(=O)N5CCC(CN6CCN(Cc7ccc8c(c7)n(C)c(=O)n8[C@H]7CCC(=O)NC7=O)CC6)CC5)cc4F)CC2)n3C)cc1F (single isomer, unassigned) [Example 3u27]", "STAT6 (Homo sapiens, UniProt P42226)", 2],
  ["CNc1cc(=O)n(-c2ccnc3c2cc([C@H](C)N2CC=C(c4c(C)cc(C(=O)N5CCC(CN6CCN(Cc7ccc8c(c7)C(C)(C)C(=O)N8[C@H]7CCC(=O)NC7=O)CC6)CC5)cc4F)CC2)n3C)cc1F (single isomer, unassigned) [Example 3u88]", "STAT6 (Homo sapiens, UniProt P42226)", 3.3],
  ["CNc1cc(=O)n(-c2ccnc3c2cc([C@H](C)N2CC=C(c4c(C)cc(C(=O)N(C)c5ccc(N6CCN(Cc7ccc8c(c7)C7(CC7)C(=O)N8C7CCC(=O)NC7=O)CC6)nc5)cc4F)CC2)n3C)cc1F (some centres unmarked) [Example 3u239]", "STAT6 (Homo sapiens, UniProt P42226)", 0.1],
  ["C[C@H]1CN(Cc2ccc3c(c2)n(C)c(=O)n3C2CCC(=O)NC2=O)CCN1CC1CCN(C(=O)c2ccc(C3CCN([C@@H](C)c4cc5c(-n6ccc7c(c6=O)CCN7)ccnc5n4C)CC3)cc2)CC1 (some centres unmarked) [Example 3e44]", "STAT6 (Homo sapiens, UniProt P42226)", 0.7]
]}

1: CNc1cc(=O)n(-c2ccnc3c2cc([C@H](C)N2CC=C(c4c(C)cc(C(=O)N5CCC(CN6CCN(Cc7ccc8c(c7)C7(CC7)C(=O)N8[C@H]7CCC(=O)NC7=O)C[C@@H]6C)CC5)cc4F)CC2)n3C)cc1F (single isomer, unassigned) [Example 3u99]
2: CNc1ccn(-c2ccnc3c2cc([C@H](C)N2CC=C(c4c(C)cc(C(=O)N5CCC(CN6CCN(Cc7cc8c(cc7F)n(C7CCC(=O)NC7=O)c(=O)n8C)C[C@@H]6C)CC5)cc4F)CC2)n3C)c(=O)c1 (some centres unmarked) [Example 3u207]
3: CNc1cc(=O)n(-c2ccnc3c2cc([C@H](C)N2CC=C(c4c(C)cc(C(=O)N5CCC(CN6CCN(Cc7ccc8c(c7)n(C)c(=O)n8C7CCC(=O)NC7=O)CC6)CC5)cc4F)CC2)n3C)cc1F (some centres unmarked) [Example 3u13]
4: CNc1cc(=O)n(-c2ccnc3c2cc(CN2CC=C(c4c(F)cc(C(=O)N5CCC(CN6CCN(Cc7ccc8c(c7)C(C)(C)C(=O)N8[C@@H]7CCC(=O)NC7=O)C[C@@H]6C)CC5)cc4F)CC2)n3C)cc1F (single isomer, unassigned) [Example 3u79]
Exercise: Please rank these molecules by DC50 in descending order. List the labels according to the requested ordering.
Key: 4, 1, 3, 2
(4: 15.4 nM, 1: 1.1 nM, 3: 0.7 nM, 2: 0.3 nM)
